Assay: yeast display, Sf9 membrane polyspecificity reagent, FACS + sequencing; frameworks hold sequencing errors
readout.label: polyreactivity (PSR sort gate)

Observe how each entry below is paired with its result.
# residues, polyreactivity (PSR sort gate)
measured = [
    ("QVQLVESGGGLVQAGGSLRLSCAASGLTFGTNAMGWYRQAPGKERELVAAISTSSGSTYYADSVKGRFTISRDNAKNTVYLQMNSLKPEDTAVYYCAAVTVTKLSYYRYYYWGQGTQVTVSS", "low polyreactivity"),
    ("QVQLVESGGGLVQAGGSLRLSCAASGSTFVPNDMGWYRQAPGKERELVAGISSVGGTDADSVKGRFTISRDNAKNTVYLQMNSLKPEDTAVYYCNALHAYYVLTPYDYWGQGTQVTVSS", "low polyreactivity"),
    ("QVQLVESGGGLVQAGGSLRLSCAASGRTFVVYAMGWYRQAPGKERELVAVISFTGDSTFYADSVKGRFTISRDNAKNTVYLQMNSLKPEDTAVYYCAADFRRVFSKYSYYLYFDFDYWGQGSQVTVSS", "low polyreactivity"),
    ("QVQLVESGGGLVQAGGSLRLSCAASGFIFRYYAMGWYRQAPGKERELVAAISWSGGTTYYADSVKGRFTISRDNAKNTVYLQMNSLKPEDTAVYYCAARVARISVPYDYWGQGTEVTVSS", "low polyreactivity"),
    ("QVQLVESGGGSVQAGGSLRLSCAASGSIFRANAMGWYRQAPGKERELVAAITANGGSTYYADSVKGRFTISRDNAKNTVYLQMNSLKPEDTAVYYCNNARVRGARFDYWGQGTQVTVSS", "high polyreactivity"),
]

The sequence identified as QVQLVESGGGLVEAGGSLRLSCAASGNIFVNYAMEWYRQAPGKERELVAAISWSGGSTYYADSVKGRFTISRDNAKNTVYLQINRLKAEDTAVYYCAADYTGHLYYYWVQGTQVTVSS registered its polyreactivity (PSR sort gate) at low polyreactivity

Value of measured polyreactivity (PSR sort gate) for the entry QVQLVESGGGLVQAGGSLRLSCAASGIIFPRYAMGWYRQAPGKERELVAAITIGGRTNYSDSVKGRFTISRDNAKNTVYLQMNSLKPEDTAVYYCAAQTYVPYYEYDYWGQGTQVTVSS : low polyreactivity

Looking up QVQLVESGGGLVQAGGSLRLSCAASGRIFGVYAMGWSRQAPGKERELVATITSGGSTSYADSVKGRFTISRDNAINTVFLQMNSLKPEDTAVYYCNAPYSFFWQQMNYWGQGTQVTVSS , I found its polyreactivity (PSR sort gate) recorded as low polyreactivity

Kindly note the recorded polyreactivity (PSR sort gate) for QVQLVESGGGLVQAGGSLRLSCAASGSTFDVYAMGWYRQAPGKERELVAAITSGGTTNYADSVKGRFTISRDNAKNTVYLQMNSLKPEDTAVYYCAKDSRNVYWDYGYWGQGTQVTVSS , which is low polyreactivity

Form: sequence = QVQLVESGGGLVQAGGSLRLSCASSGRTFGFNVMGWYRQATGKERELVAAISWSGGSTYYADSVKGRFTISRDNAKNTVYLQMNILKPEDTAVYYCNAQYSQVNGYDYWGQGTQVTVSS ; polyreactivity (PSR sort gate) = low polyreactivity

Reported polyreactivity (PSR sort gate) ( QVQLVESGGGLVQAGGSLRLSCAASGSIFSPYAMGWYRQAPGKERELVAAITWSGGSTYYADSVKGRFTISRDNAKNTVYLQMNSLKPEDTAVYYCAATYYVNAWRYYYWGQGTQVTVSS ) = high polyreactivity

// QVQLVESGGGLVQAGGSLRLSCAASGIIFQRNDMGWYRQAPGKEREFVAAITYIGGSTYYADSVKGRFTISRDNAKNTVYLQMNSLKPEDTAVYWGQGTQVTVSS : polyreactivity (PSR sort gate) value = low polyreactivity
